- System: LOX IMVI melanoma
- PROTOCOL DETAILS: NCI tumour cell line growth inhibition, 48 h
MEASUREMENT NAME: TGI

Below, 3 compounds whose answers are already recorded.
COMPOUND | TGI
O=C1/C(=C\c2cccc(Oc3ccccc3)c2)SC(c2ccccc2)N1c1cccc([N+](=O)[O-])c1 (stereo unspecified) | > 100 µM
O=C1C(c2ccccc2)=C(c2ccccc2)[C@H](c2ccccc2)[C@]1(Cc1nnn(-c2ccc([N+](=O)[O-])cc2)c1N1CCOCC1)c1ccccc1 | > 37.5 µM
Cc1ccc2c(c1)CC1(C2=O)[C@H](c2ccccc2)C2C(=O)c3ccc(C)cc3C2[C@H]1c1ccccc1 (stereo partly specified) | > 100 µM

Problem: Input `CCOCNc1ccc(N2C(=O)/C(=C/c3ccc(N(CC)CC)cc3)N=C2c2ccccc2)cc1` , output reported TGI.
Result: > 100 µM

Problem: Give the value of TGI reported for the following: `Fc1cc(-c2nnc3n2N=C(c2ccc(Cl)cc2Cl)CS3)c(Cl)cc1Cl`
Result: > 100 µM

Problem: Consider the compound `C[N+](C)=c1nc(N2CCOCC2)ss1` and give its recorded TGI.
Result: > 100 µM

Problem: Report measured TGI; entry is `CCOC(=O)CCCn1cc(C(=O)OC)nn1`
Result: > 100 µM

The values you see were collected from PubChem BioAssay (NCI).
